Target: furin, P09958;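 also: purified furin at 1:10 enzyme:substrate in 50 mM HEPES pH 7.5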
Sequence (P09958 whole entry): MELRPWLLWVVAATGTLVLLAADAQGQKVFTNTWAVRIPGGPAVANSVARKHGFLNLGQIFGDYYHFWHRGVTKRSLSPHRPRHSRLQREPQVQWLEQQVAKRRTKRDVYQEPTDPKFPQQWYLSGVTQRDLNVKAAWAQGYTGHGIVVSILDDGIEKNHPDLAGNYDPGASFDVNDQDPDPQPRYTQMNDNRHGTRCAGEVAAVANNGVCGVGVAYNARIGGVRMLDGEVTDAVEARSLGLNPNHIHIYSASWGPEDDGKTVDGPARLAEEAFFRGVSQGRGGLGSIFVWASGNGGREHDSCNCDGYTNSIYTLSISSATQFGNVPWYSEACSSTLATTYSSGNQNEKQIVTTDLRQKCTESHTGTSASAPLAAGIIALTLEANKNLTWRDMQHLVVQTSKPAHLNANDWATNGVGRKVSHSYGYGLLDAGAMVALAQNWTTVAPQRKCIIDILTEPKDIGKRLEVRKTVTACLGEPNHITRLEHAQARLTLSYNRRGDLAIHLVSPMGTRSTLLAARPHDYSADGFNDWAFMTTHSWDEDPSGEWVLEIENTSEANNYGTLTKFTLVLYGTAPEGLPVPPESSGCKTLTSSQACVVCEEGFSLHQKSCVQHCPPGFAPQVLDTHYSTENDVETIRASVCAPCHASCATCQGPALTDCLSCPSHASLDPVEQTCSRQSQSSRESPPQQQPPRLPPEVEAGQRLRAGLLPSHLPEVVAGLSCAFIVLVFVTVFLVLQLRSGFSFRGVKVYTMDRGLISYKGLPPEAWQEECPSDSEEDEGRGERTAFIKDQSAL
Assay: furin cleavage Z-score vs untreated control; higher = more cleavage, active = 3.5 or more, inactive = 1 or less, 8 variable residues between constant flanks
Conditions: 7.5 min
Some of the results follow. The true hit rate is not given.
Reported furin cleavage Z-score values for a set of sequences
# print the numeric value only

CALQRRVKRSAGNASASA [FS-1463] :: 3.17
CAPTHYVPESAGNASASA [HC1126] :: 1.82
CARSRRTICVAGNASASA [FS-3239] :: 3.04
CAAGYGAGVAAGNASASA [HC1087] :: 1.51

Below: the item to evaluate.
(Q) Specify furin cleavage Z-score for CARSRNLGKVAGNASASA [HC218] and stop.
(A) 1.83
